- test_description: Metabolic stability in human hepatocytes assessed as intrinsic clearance measured per million cells incubated upto 120 mins by LC-MS/MS analysis
- Type: ADME, cell-based, Hepatocyte
- measurement_setup: read-out: CLH
recorded_metric: hepatocyte CLint (µL/min/1e6 cells)

COc1cc(NC(C(=O)c2c[nH]c3cc(OC)ccc23)c2ccc(Cl)cc2OC)cc(S(C)(=O)=O)c1 (single isomer, unassigned; (+)); 10

A. COc1cc(NC(C(=O)c2c[nH]c3cc(F)ccc23)c2ccc(Cl)cc2OCCO)cc(S(C)(=O)=O)c1 (single isomer, unassigned; (+))
B. COc1cc(NC(C(=O)c2c[nH]c3cc(OC)c(C)cc23)c2ccc(F)cc2OC)cc(S(C)(=O)=O)c1 (single isomer, unassigned; (+))
Problem: Lab note: record which item had the higher hepatocyte CLint, A or B . Please identify the chosen entry by its label.
Result: A
